Where these numbers come from: the supplement of paper PMC10567573

B1: TRIM29 (parent)
chain: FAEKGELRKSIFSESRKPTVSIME

Variants of: B1
Assay: protein stability index of a GFP-peptide fusion (GPS, HEK-293T) (PSI 1-6); higher = more stable;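 also: lentivirally expressed fusions sorted by FACS into six bins by GFP to DsRed ratio, PSI derived from sequencing read proportions per bin multiplied by bin number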
Details: c terminus: a fixed tail appended
assay readout: protein stability index
Respond with the number and no other words.

### Prompt Return the recorded protein stability index value; entry: `I22D`
### Response 1.99

### Prompt Return the recorded protein stability index value; entry: `K9N`
### Response 1.87

### Prompt Return the recorded protein stability index value; entry: `S10N`
### Response 1.76

### Prompt Return the recorded protein stability index value; entry: `R16Y`
### Response 1.4

### Prompt Return the recorded protein stability index value; entry: `K9I`
### Response 3.48

### Prompt Return the recorded protein stability index value; entry: `I11M`
### Response 1.53

### Prompt Return the recorded protein stability index value; entry: `S15K`
### Response 2

Further cases:
### Prompt Return the recorded protein stability index value; entry: `I11Q`
### Response 3.33
